These entries and their values trace back to ChEMBL document CHEMBL1137387.

# test-system: Mu-type opioid receptor (Homo sapiens, UniProt P35372)
# Sequence (P35372 whole entry): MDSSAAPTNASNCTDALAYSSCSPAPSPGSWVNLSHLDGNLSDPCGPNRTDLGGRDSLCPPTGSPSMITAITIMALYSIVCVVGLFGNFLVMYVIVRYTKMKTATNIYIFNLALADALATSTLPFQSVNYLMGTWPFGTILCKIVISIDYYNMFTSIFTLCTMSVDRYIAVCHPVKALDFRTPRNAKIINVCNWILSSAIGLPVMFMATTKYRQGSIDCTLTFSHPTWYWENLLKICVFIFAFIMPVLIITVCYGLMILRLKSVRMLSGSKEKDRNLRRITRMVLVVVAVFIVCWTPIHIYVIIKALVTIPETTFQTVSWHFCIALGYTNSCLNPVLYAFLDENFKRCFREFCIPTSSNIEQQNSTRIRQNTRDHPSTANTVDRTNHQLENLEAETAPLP
# test-summary: Displacement of [3H]diprenorphine from human mu opioid receptor expressed in C6 cells
# Assay type: cell-based
measurement-name: Ki

[[record]]
compound_structure_string = "O=C1CC[C@@]2(NC/C=C/c3ccc(Cl)cc3)[C@H]3Cc4ccc(O)c5c4[C@@]2(CCN3CC2CC2)[C@H]1O5"
val = "0.32 nM"


====

# test-system: UniProt P35372
# test-summary: Activity at human recombinant mu opioid receptor expressed in CHO cells assessed as stimulation of [35S]GTP-gamma-S binding relative to DAMGO
# Format: functional, cell-based
measurement-name: Efficacy (%)

[[record]]
compound_structure_string = "COc1ccc2c3c1O[C@H]1C(=O)CC[C@@]4(NCCc5ccc(Cl)cc5)[C@@H](C2)N(CC2CC2)CC[C@]314"
test_system = "UniProt P35372"
val = 39

[[record]]
compound_structure_string = "O=C(Cc1ccc(Cl)cc1)N[C@@]12CCC(=O)[C@@H]3Oc4c(O)ccc5c4[C@@]31CCN(CC1CC1)[C@@H]2C5"
test_system = "UniProt P35372"
val = 29

[[record]]
compound_structure_string = "COc1ccc2c3c1O[C@H]1C(=O)CC[C@@]4(NC(=O)Cc5ccc(Cl)cc5)[C@@H](C2)N(CC2CC2)CC[C@]314"
test_system = "UniProt P35372"
val = 39

[[record]]
compound_structure_string = "O=C1CC[C@@]2(NCCc3ccc(Cl)cc3)[C@H]3Cc4ccc(O)c5c4[C@@]2(CCN3CC2CC2)[C@H]1O5"
test_system = "UniProt P35372"
val = 34


====

# Organism: Cavia porcellus
# test-summary: Selectivity for guinea pig mu opioid receptor over delta opioid receptor
measurement-name: Ratio Ki

[[record]]
compound_structure_string = "O=C(CCc1ccc(Cl)cc1)N[C@@]12CCC(=O)[C@@H]3Oc4c(O)ccc5c4[C@@]31CCN(CC1CC1)[C@@H]2C5"
measurement_name = "Ratio Ki"
val = 15

[[record]]
compound_structure_string = "COc1ccc2c3c1O[C@H]1C(=O)CC[C@@]4(NCCCc5ccc(Cl)cc5)[C@@H](C2)N(CC2CC2)CC[C@]314"
measurement_name = "Ratio Ki"
val = 53

[[record]]
compound_structure_string = "COc1ccc2c3c1O[C@H]1C(=O)CC[C@@]4(NC(=O)CCc5ccc(Cl)cc5)[C@@H](C2)N(CC2CC2)CC[C@]314"
measurement_name = "Ratio Ki"
val = 21.2

[[record]]
compound_structure_string = "O=C1CC[C@@]2(NCCCc3ccc(Cl)cc3)[C@H]3Cc4ccc(O)c5c4[C@@]2(CCN3CC2CC2)[C@H]1O5"
measurement_name = "Ratio Ki"
val = 8.5

[[record]]
compound_structure_string = "COc1ccc2c3c1O[C@H]1C(=O)CC[C@@]4(NC/C=C/c5ccc(Cl)cc5)[C@@H](C2)N(CC2CC2)CC[C@]314"
measurement_name = "Ratio Ki"
val = 63.6


====

Overview of reported Ki across a group of molecules:
# test-system: Mu-type opioid receptor (Cavia porcellus)
# Sequence (P97266 whole entry): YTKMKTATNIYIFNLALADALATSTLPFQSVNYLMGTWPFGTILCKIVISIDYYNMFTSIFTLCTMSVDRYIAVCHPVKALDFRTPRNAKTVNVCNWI
measurement-name: Ki (nM)

[[record]]
compound_structure_string = "O=C1CC[C@@]2(NCCCc3ccc(Cl)cc3)[C@H]3Cc4ccc(O)c5c4[C@@]2(CCN3CC2CC2)[C@H]1O5"
val = 0.13

[[record]]
compound_structure_string = "O=C(CCc1ccc(Cl)cc1)N[C@@]12CCC(=O)[C@@H]3Oc4c(O)ccc5c4[C@@]31CCN(CC1CC1)[C@@H]2C5"
val = 0.04

[[record]]
compound_structure_string = "COc1ccc2c3c1O[C@H]1C(=O)CC[C@@]4(NCCCc5ccc(Cl)cc5)[C@@H](C2)N(CC2CC2)CC[C@]314"
val = 0.59

[[record]]
compound_structure_string = "COc1ccc2c3c1O[C@H]1C(=O)CC[C@@]4(NC(=O)CCc5ccc(Cl)cc5)[C@@H](C2)N(CC2CC2)CC[C@]314"
val = 0.24

[[record]]
compound_structure_string = "COc1ccc2c3c1O[C@H]1C(=O)CC[C@@]4(NC/C=C/c5ccc(Cl)cc5)[C@@H](C2)N(CC2CC2)CC[C@]314"
val = 0.7

